- target system: T1, DDX21Core (human, UniProt Q9NR30 186-564)
- T1 sequence: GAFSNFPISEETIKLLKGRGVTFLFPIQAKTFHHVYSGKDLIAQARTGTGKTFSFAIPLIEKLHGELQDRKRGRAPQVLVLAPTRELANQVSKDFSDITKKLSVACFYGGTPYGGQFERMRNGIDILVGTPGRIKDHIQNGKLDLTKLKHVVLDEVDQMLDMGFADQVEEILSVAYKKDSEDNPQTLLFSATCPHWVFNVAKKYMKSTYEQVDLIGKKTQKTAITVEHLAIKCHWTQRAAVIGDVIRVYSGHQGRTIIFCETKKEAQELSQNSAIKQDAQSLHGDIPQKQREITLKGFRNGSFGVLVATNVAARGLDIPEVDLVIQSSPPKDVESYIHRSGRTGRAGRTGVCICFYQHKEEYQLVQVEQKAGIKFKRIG
- method summary: fluorescence polarization; 50 mM KCl; FP: 50 mM Tris pH 7.5, 50 mM KCl, 5 mM MgCl2, no ATP; Hill-slope fit; temperature not given in the material
- protocol conditions: protein: recombinant; label: 5'-FAM; G4
quantity name: pKd
Would you please state pKd, meaning minus log10 of the concentration in mol/L, as a bare number?

q: Which pKd reading was recorded for the binder GUUGGGGCGGGCGUUGGGUUUGGGGGGACG (structured_RNA) [Q2 RNA G-quadruplex] ?
a: 7.20
